target: Gal(b1-3)[Fuc(a1-4)]GlcNAc(b1-6)GalNAc; test: glycan array binding signal (z-score within array); higher = stronger binding; conditions: glycan notation: IUPAC condensed, linker removed
The sample as a whole holds a higher share of the strongest signals than the screen did.
The reader will find reported glycan array binding signal (z-score) values listed item by item below.

{"binder": "Gal 4 (Homo sapiens), Q8K419 (protein) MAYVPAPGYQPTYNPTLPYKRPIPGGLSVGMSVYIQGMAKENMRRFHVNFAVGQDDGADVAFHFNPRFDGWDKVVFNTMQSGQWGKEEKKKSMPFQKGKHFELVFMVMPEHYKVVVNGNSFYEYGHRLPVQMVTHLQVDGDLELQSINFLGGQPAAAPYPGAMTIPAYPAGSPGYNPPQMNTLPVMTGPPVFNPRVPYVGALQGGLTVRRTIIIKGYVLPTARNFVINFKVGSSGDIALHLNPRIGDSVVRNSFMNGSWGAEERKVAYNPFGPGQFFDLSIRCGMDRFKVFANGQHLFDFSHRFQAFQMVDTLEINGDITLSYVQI", "glycan array binding signal (z-score)": -0.193}
{"binder": "Gal 9 (Homo sapiens), O00182 (protein) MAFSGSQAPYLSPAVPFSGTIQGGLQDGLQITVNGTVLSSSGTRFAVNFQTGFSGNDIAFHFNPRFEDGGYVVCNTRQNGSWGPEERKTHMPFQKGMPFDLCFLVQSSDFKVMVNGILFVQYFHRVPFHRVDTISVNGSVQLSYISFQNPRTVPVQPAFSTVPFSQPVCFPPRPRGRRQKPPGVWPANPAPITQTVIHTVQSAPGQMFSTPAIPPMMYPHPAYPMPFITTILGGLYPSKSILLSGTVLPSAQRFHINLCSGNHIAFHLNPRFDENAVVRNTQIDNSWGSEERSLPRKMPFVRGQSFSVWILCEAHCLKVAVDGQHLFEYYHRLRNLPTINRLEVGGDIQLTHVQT", "glycan array binding signal (z-score)": -0.282}
